# System: CCRIS mutagenicity, Ames/micronucleus/aberration tests
# method-notes: CCRIS mutagenicity studies
# recorded-conditions: Test System: AMES SALMONELLA TYPHIMURIUM; Strain/Indicator: TA98; Metabolic Activation: RAT, LIVER, S-9, AROCLOR 1254; Method: PREINCUBATION
Activity calls are given as the source filed them. How the calls were made is not given here.
Labels: True for active, False for inactive

- smiles-string: "O=NN1CCCCC1"
  target-or-system: "CCRIS mutagenicity, Ames/micronucleus/aberration tests"
  category: "False"
- smiles-string: "O=C/C(Br)=C/c1ccccc1"
  target-or-system: "CCRIS mutagenicity, Ames/micronucleus/aberration tests"
  category: "True"
- smiles-string: "Cc1cccc(N=O)c1"
  target-or-system: "CCRIS mutagenicity, Ames/micronucleus/aberration tests"
  category: "False"
- smiles-string: "CC(=O)OC(C)(C)C"
  target-or-system: "CCRIS mutagenicity, Ames/micronucleus/aberration tests"
  category: "False"
- smiles-string: "Cn1c(N)nc2cc(Cl)ccc21"
  target-or-system: "CCRIS mutagenicity, Ames/micronucleus/aberration tests"
  category: "True"
- smiles-string: "Cn1c(N)nc2ncc(-c3ccccc3)cc21"
  target-or-system: "CCRIS mutagenicity, Ames/micronucleus/aberration tests"
  category: "True"
- smiles-string: "Oc1ccc(Cl)cc1Cl"
  target-or-system: "CCRIS mutagenicity, Ames/micronucleus/aberration tests"
  category: "False"
- smiles-string: "O=[N+]([O-])c1cc2c(ccc3ccccc32)c2c1C=C[C@H](O)[C@H]2O"
  target-or-system: "CCRIS mutagenicity, Ames/micronucleus/aberration tests"
  category: "False"
- smiles-string: "O=c1c(=O)c2c([N+](=O)[O-])ccc3ccc4cccc1c4c32"
  target-or-system: "CCRIS mutagenicity, Ames/micronucleus/aberration tests"
  category: "True"
- smiles-string: "Cn1c(N)nc2ccc3ncccc3c21"
  target-or-system: "CCRIS mutagenicity, Ames/micronucleus/aberration tests"
  category: "True"
- smiles-string: "CC(C)CC=O"
  target-or-system: "CCRIS mutagenicity, Ames/micronucleus/aberration tests"
  category: "False"

###

# System: CCRIS mutagenicity, Ames/micronucleus/aberration tests
# method-notes: CCRIS mutagenicity studies
# recorded-conditions: Test System: AMES SALMONELLA TYPHIMURIUM; Strain/Indicator: TA98; Metabolic Activation: RAT, LIVER, S-9, AROCLOR 1254 (30%); Method: PREINCUBATION
# From the text: The CCRIS database contains chemical records with carcinogenicity, mutagenicity, tumor promotion, and tumor inhibition test results. It was developed by the National Cancer Institute (NCI). Data are derived from studies cited in primary journals, current awareness tools, NCI reports, and other sources. Test results have been reviewed by experts in carcinogenesis and mutagenesis. CCRIS provides historical information from the years 1985 - 2011. It is no longer updated. […]
The source made the active and inactive calls. The rule behind the calls is not given here.
Labels: active, inactive

- smiles-string: "O=C(O)CN(CCN(CC(=O)O)CC(=O)O)CC(=O)O"
  category: "inactive"
- smiles-string: "ON=C1CCCCC1"
  category: "inactive"
- smiles-string: "CC(=O)OCCC(C)C"
  category: "inactive"
- smiles-string: "C1COC1"
  category: "inactive"
- smiles-string: "N#C/C(N)=C(/N)C#N"
  category: "inactive"
- smiles-string: "CCN(Cc1cccc(S(=O)(=O)[O-])c1)c1ccc(C(=C2C=CC(=[N+](C)C)C=C2)c2ccc(N(CC)Cc3cccc(S(=O)(=O)O)c3)cc2)cc1"
  category: "active"
- smiles-string: "COC(=O)Nc1cccc(OC(=O)Nc2cccc(C)c2)c1"
  category: "inactive"
- smiles-string: "c1ccc(Nc2ccc(Nc3ccccc3)cc2)cc1"
  category: "active"
- smiles-string: "O=C(O)c1cccc(Cl)c1"
  category: "inactive"
- smiles-string: "CCCN(CCC)C(=O)SCC"
  category: "inactive"
- smiles-string: "CN(C)c1ccc(C(=N)c2ccc(N(C)C)cc2)cc1"
  category: "active"
- smiles-string: "O=C1c2c(O)cccc2Cc2cccc(O)c21"
  category: "inactive"

###

# Tested on: CCRIS mutagenicity, Ames/micronucleus/aberration tests
# method-notes: CCRIS mutagenicity studies
# recorded-conditions: Test System: AMES SALMONELLA TYPHIMURIUM; Strain/Indicator: TA1535; Metabolic Activation: NONE; Method: PREINCUBATION
The source made the active and inactive calls. The rule behind the calls is not given here.
Labels: True = active, False = inactive

- compound: "Nc1ccc(-c2ccc(N)c(Cl)c2)cc1Cl"
  category: "False"
- compound: "CC(=O)NBr"
  category: "False"
- compound: "Nc1nc2ccccc2[nH]1"
  category: "False"
- compound: "O=C(Nc1ccc(Cl)cc1)Nc1ccc(Cl)c(Cl)c1"
  category: "False"
- compound: "CN(C)c1ccc(N=Nc2ccccc2)cc1"
  category: "False"
- compound: "O=C1c2ccccc2C(=O)c2c1cc(O)c(CO)c2O"
  category: "False"
- compound: "c1ccncc1"
  category: "False"
- compound: "COc1ccc(C(Cl)=C(c2ccc(OC)cc2)c2ccc(OC)cc2)cc1"
  category: "False"
- compound: "O=[N+]([O-])c1ccc(CCO)cc1"
  category: "False"
- compound: "COc1ccc(CC2CO2)cc1 (stereo not given)"
  category: "True"
- compound: "CC(C)(C)C(=O)C(Oc1ccc(Cl)cc1)n1ccnc1 (stereo not given)"
  category: "False"
- compound: "CC(O)CO (stereo not given)"
  category: "False"
- compound: "NCCNCCN"
  category: "False"
- compound: "CC[C@H]1OC(=O)[C@H](C)[C@@H](O[C@H]2C[C@@](C)(OC)[C@@H](O)[C@H](C)O2)[C@H](C)[C@@H](O[C@@H]2O[C@H](C)C[C@H](N(C)C)[C@H]2O)[C@](C)(O)C[C@@H](C)/C(=N\\OCOCCOC)[C@H](C)[C@@H](O)[C@]1(C)O"
  category: "False"
- compound: "NC(=O)c1ccccc1C(N)=O"
  category: "False"
- compound: "N#C/C(N)=C(/N)C#N"
  category: "False"
- compound: "CSC[C@H](NC(=O)C(C)(C)SC)C(=O)O"
  category: "False"
- compound: "CCCCCCCC(=O)O"
  category: "False"
- compound: "O=C1OC(=O)c2c(Br)c(Br)c(Br)c(Br)c21"
  category: "False"
- compound: "O=C(O)C(F)(F)C(F)(Cl)C(F)(F)C(F)(Cl)C(F)(F)Cl (stereo not given)"
  category: "False"
- compound: "CC(C)=CCl"
  category: "False"
- compound: "NCCS(=O)(=O)O"
  category: "False"
- compound: "CCCCC(CC)COC(=O)CCCCC(=O)O (stereo not given)"
  category: "False"
- compound: "CCOc1cc(C=O)ccc1O"
  category: "False"
- compound: "C[Si](Cl)Cl"
  category: "False"
- compound: "O=[N+]([O-])c1cccc(Cl)c1Cl"
  category: "False"
- compound: "CC(C)=CCC1=C(O)c2ccccc2C(=O)C1=O"
  category: "False"
- compound: "C=CC=O"
  category: "False"
- compound: "O=C/C(Br)=C/c1ccccc1"
  category: "True"
- compound: "C=C(C)C(=O)OCC"
  category: "False"

###

# Test system: CCRIS mutagenicity, Ames/micronucleus/aberration tests
# method-notes: CCRIS mutagenicity studies
# recorded-conditions: Test System: AMES SALMONELLA TYPHIMURIUM; Strain/Indicator: TA100; Metabolic Activation: RAT, LIVER, S-9, AROCLOR 1254; Method: STANDARD PLATE
Active and inactive are the calls of the source. The rule behind the calls is not given here.
Labels: YES (active), NO (inactive)

- compound: "O=C1c2ccccc2C(=O)N1SC(Cl)(Cl)Cl"
  target-or-system: "CCRIS mutagenicity, Ames/micronucleus/aberration tests"
  category: "YES"
- compound: "O=NO"
  target-or-system: "CCRIS mutagenicity, Ames/micronucleus/aberration tests"
  category: "YES"
- compound: "C=C1C(=O)O[C@@H]2[C@H]1CC[C@H](C)[C@@H]1C=CC(=O)[C@@]21C"
  target-or-system: "CCRIS mutagenicity, Ames/micronucleus/aberration tests"
  category: "NO"
- compound: "O[C@H]1C=Cc2c(ccc3cc4c5c(ccc4cc23)[C@H](O)[C@@H](O)C=C5)[C@@H]1O"
  target-or-system: "CCRIS mutagenicity, Ames/micronucleus/aberration tests"
  category: "NO"
- compound: "O=NN1CCSC1C(O)C(O)C(O)C(O)CO (configuration not stated)"
  target-or-system: "CCRIS mutagenicity, Ames/micronucleus/aberration tests"
  category: "YES"
- compound: "ClCCN(CCCl)c1ccc2ccccc2c1"
  target-or-system: "CCRIS mutagenicity, Ames/micronucleus/aberration tests"
  category: "YES"
- compound: "O=[N+]([O-])c1cc2ccc3cccc4ccc(c1O)c2c34"
  target-or-system: "CCRIS mutagenicity, Ames/micronucleus/aberration tests"
  category: "YES"
- compound: "C[C@]12CC[C@@H]3c4ccc(O)cc4CC[C@H]3[C@@H]1CC[C@@H]2O"
  target-or-system: "CCRIS mutagenicity, Ames/micronucleus/aberration tests"
  category: "NO"
- compound: "N#CC(Cl)Br (configuration not stated)"
  target-or-system: "CCRIS mutagenicity, Ames/micronucleus/aberration tests"
  category: "YES"
- compound: "Nc1cc(C(F)(F)F)ccc1Cl"
  target-or-system: "CCRIS mutagenicity, Ames/micronucleus/aberration tests"
  category: "NO"
- compound: "O=C1CCC(=O)N1c1ccc(Cl)cc1"
  target-or-system: "CCRIS mutagenicity, Ames/micronucleus/aberration tests"
  category: "NO"
- compound: "NC(Cc1ccc(O)cc1)C(=O)O (configuration not stated)"
  target-or-system: "CCRIS mutagenicity, Ames/micronucleus/aberration tests"
  category: "NO"
- compound: "NC(=O)NO"
  target-or-system: "CCRIS mutagenicity, Ames/micronucleus/aberration tests"
  category: "YES"
- compound: "Cc1ccc(N)c(S(=O)(=O)O)c1"
  target-or-system: "CCRIS mutagenicity, Ames/micronucleus/aberration tests"
  category: "NO"
- compound: "CC1OC(OC2CC(O)(CO)Cc3c(O)c4c(c(O)c32)C(=O)c2ccccc2C4=O)C(I)C(O)C1O (configuration not stated)"
  target-or-system: "CCRIS mutagenicity, Ames/micronucleus/aberration tests"
  category: "NO"
- compound: "O=C(O)Cc1c[nH]c2ccccc12"
  target-or-system: "CCRIS mutagenicity, Ames/micronucleus/aberration tests"
  category: "NO"
- compound: "CCCON=O"
  target-or-system: "CCRIS mutagenicity, Ames/micronucleus/aberration tests"
  category: "YES"
- compound: "CC(=O)O[C@H]1CC[C@]2(C)[C@H]3CC[C@]4(C)[C@@H]([C@H](C)CCCC(C)C)CC[C@H]4[C@@H]3C[C@@H]3N(N4C(=O)c5ccccc5C4=O)[C@@]32C1 (some centres not stated)"
  target-or-system: "CCRIS mutagenicity, Ames/micronucleus/aberration tests"
  category: "YES"
- compound: "CC(O)Cc1cc(N)cc([N+](=O)[O-])c1N (configuration not stated)"
  target-or-system: "CCRIS mutagenicity, Ames/micronucleus/aberration tests"
  category: "NO"
- compound: "CC(O)CCC(=O)c1ccoc1 (configuration not stated)"
  target-or-system: "CCRIS mutagenicity, Ames/micronucleus/aberration tests"
  category: "NO"
- compound: "O=C1c2cccc(O)c2C(=O)c2c(O)cc(CO)cc21"
  target-or-system: "CCRIS mutagenicity, Ames/micronucleus/aberration tests"
  category: "NO"
- compound: "C=C(C)C(=O)OCCOCCOC(=O)C(=C)C"
  target-or-system: "CCRIS mutagenicity, Ames/micronucleus/aberration tests"
  category: "NO"
